# test.name: Pharmacokinetic test in rats, gavage administration
# Assay type: in vivo, SD rats
# condition.summary: both sexes, Sprague-Dawley, rat, plasma, oral, 20 mg/kg, 20 mg/kg oral, 0.5 h, mean of 6 rats; read-out: Concentrations in Plasma of Rats after Oral Administration, Mean ± SD
Below, each of the compounds is paired with its reported concentration at 0.5 h value.
measure: concentration at 0.5 h

> print(dat)
                                   compound                 measure  test.result
1  [2H]C([2H])([2H])c1ccc(Sc2ccccc2N2CCNCC2)c(C([2H])([2H])[2H])c1 [XX]  concentration at 0.5 h   62.9 ng/mL
2      Cc1ccc(Sc2ccccc2N2CCNCC2)c(C)c1 [YY]  concentration at 0.5 h   54.9 ng/mL

Provenance of the data: patent US9896423B2
